All figures here come from paper PMC9482650.

# Target Or System: PARD3_3, Q8TEW0
# Sequence (Q8TEW0 582-685): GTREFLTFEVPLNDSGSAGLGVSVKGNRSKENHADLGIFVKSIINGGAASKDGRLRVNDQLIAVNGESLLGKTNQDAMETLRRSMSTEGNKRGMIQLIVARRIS
# Test: holdup assay
# Design: key: below the threshold = too weak to quantify, mostly under pKd 3.1 to 4
# Stated Conditions: plain residues with an end cap or a label only (N-terminal biotin on a linker: ttds)
Metric Name: pKd

Some entries whose results are on file:
Binder: GARVSKETPL [MAPK12, P53778]
pKd: below the threshold
--
Binder: NPDALPETLV [ARHGAP6, O43182]
pKd: 3.85
--
Binder: GRLLGLETNV [ARHGEF26, Q96DR7]
pKd: below the threshold
--
Binder: DLDEEEDTHL [PODXL, O00592]
pKd: 4.22
--
Binder: QRPYRRESEI [KCNJ12, Q14500]
pKd: below the threshold
--
Binder: SRSRRRETAL [HPV33-E6, P06427]
pKd: below the threshold

Need pKd for each of these binders.
1. PPRQRSETQV [HPV82-E6, Q9IR59]
2. PSRDRKETSI [RALBP1, Q15311]
3. SGGKRKETLV [NET1, Q7Z628]
4. SSIDLWETAL [SLC15A5, A6NIM6]
5. KQVVPFSSSV [GDA, Q9Y2T3]

Return:
below the threshold
below the threshold
below the threshold
4.44
below the threshold

Need pKd for each of these binders.
1. PFRSRSPSEV [GPR6, P46095]
2. KLVIKTETTV [RASSF6, Q6ZTQ3]
3. FVETQHQTQV [FAT3, Q8TDW7]
4. SHSSKGETAV [FZD7, O75084]

Return:
1: below the threshold; 2: below the threshold; 3: below the threshold; 4: below the threshold
